Provenance of the data: PubChem BioAssay

# testSystem: Alpha-bungarotoxin (Bungarus multicinctus)
# assayExplanation: alpha-bungarotoxin binders on microarray, profiling panel, artefact control for SMM control protein annotation, biochemical, small-molecule microarray, Alexa647 label, 635/667 nm fluorescence (AID 1117)
# conditions: alpha-BTX-A647 binding fluorescence, higher = more signal
Kind request: treat 0.5 as inclusive, so composite z-score at 0.5 or higher is Met, anything lower is Not met.

| compound | testSystem | group |
| --- | --- | --- |
| C=C(CCCC)C(=O)CC[C@@H](OC(=O)c1cccnc1)c1ccccc1OCCO | Alpha-bungarotoxin (Bungarus multicinctus) | Met |
| C[C@H]1ON(c2ccc(C(=O)OC(C)(C)C)cc2)[C@@H](c2ccc(O)cc2)[C@@H]1C(=O)N1C(=O)OC[C@@H]1c1ccccc1 | Alpha-bungarotoxin (Bungarus multicinctus) | Not met |
| COCCOC(=O)N1C(=O)[C@@]2(c3cc(C#CC4=CCCCC4)ccc31)[C@H](c1ccc(O)cc1)N1[C@H](c3ccccc3)[C@H](c3ccccc3)OC(=O)[C@H]1[C@@H]2C(=O)Nc1nc2ccccc2s1 | Alpha-bungarotoxin (Bungarus multicinctus) | Met |
| COc1cc(CO)cc(I)c1O[C@H]1C=C(C(=O)NCCO)C[C@@H](N(Cc2ccc(F)cc2)C(=O)C2CCCO2)[C@@H]1O (some centres not stated) | Alpha-bungarotoxin (Bungarus multicinctus) | Met |
| O=C1NC(=O)C2C1C=CC(C(O)c1c(F)cccc1Cl)N2Nc1ccccn1 (configuration not stated) | Alpha-bungarotoxin (Bungarus multicinctus) | Not met |
| COc1cc2c(cc1OC)CN(C(=O)[C@H]1[C@@H]3C(=O)O[C@@H](c4ccccc4)[C@@H](c4ccccc4)N3[C@@H](c3ccc(OCCO)cc3)[C@]13C(=O)Nc1ccc(C#CC4(O)CCCCCC4)cc13)CC2 | Alpha-bungarotoxin (Bungarus multicinctus) | Met |
| CCOC(=O)C[C@H]1[C@H](OC(=O)c2ccc(-c3ccccc3)cc2)[C@@H](NC(=O)c2ccc3ccccc3n2)c2cc(OCCCO)ccc2N1C(=O)c1ccccc1 | Alpha-bungarotoxin (Bungarus multicinctus) | Not met |
| CC1CC/C=C\[C@H]2OC34C=CCN(c5ccc6ccccc6c5)C(=O)[C@H]3N(C(CO)C(C)C)C(=O)[C@@H]4C2C(=O)O1 (some centres not stated) | Alpha-bungarotoxin (Bungarus multicinctus) | Not met |
| CC(C)C[C@@H]1NC(=O)[C@H]2C[C@@H](C(=O)NCCCCCC[N+](C)(C)C)[C@@H](c3cccc(OCCO)c3)N2C1=O | Alpha-bungarotoxin (Bungarus multicinctus) | Not met |
| O=C1C[C@]2(c3ccc([N+](=O)[O-])cc3)C(=O)N(Cc3ccccc3)c3cc(CO)ccc3[C@H]2N1CC12CC3CC(CC(C3)C1)C2 | Alpha-bungarotoxin (Bungarus multicinctus) | Not met |
| CC(C)NC(=O)[C@@]1(C)c2ccccc2C(=O)N(C(C)C)[C@H]1c1ccc(CO)cc1 | Alpha-bungarotoxin (Bungarus multicinctus) | Not met |
| C=CCOC(=O)[C@@H]1[C@H]2C(=O)O[C@H](c3ccccc3)[C@H](c3ccccc3)N2[C@H](c2ccc(OCCOC(=O)[C@H]3C[C@H]4C(=O)N[C@@H](CCCCN(C)C)C(=O)N4[C@H]3c3cccc(OCCO)c3)cc2)[C@@]12C(=O)Nc1ccc(I)cc12 | Alpha-bungarotoxin (Bungarus multicinctus) | Met |
| COC(=O)[C@@]1(Cc2ccccc2)[C@H]2c3cc(C(=O)N4CCCC4)n(Cc4cc(F)cc5c4OCOC5)c3C[C@H]2CN1C(=O)c1ccccc1 | Alpha-bungarotoxin (Bungarus multicinctus) | Not met |
| O=C1C2C=CC(C(O)c3cc(C(F)(F)F)cc(C(F)(F)F)c3)N(Nc3ccc([N+](=O)[O-])cc3)C2C(=O)N1c1ccccc1 (configuration not stated) | Alpha-bungarotoxin (Bungarus multicinctus) | Met |
| CCOC(=O)C[C@H]1[C@H](OC(=O)Cc2ccc3c(c2)OCO3)[C@@H](NC(=O)Cc2ccc(OC)cc2)c2cc(OCCCO)ccc2N1C(=O)c1ccccc1 | Alpha-bungarotoxin (Bungarus multicinctus) | Met |
| O=C1O[C@@H](c2ccccc2)[C@@H](c2ccccc2)N2[C@@H](c3ccc(O)cc3)[C@]3(C(=O)Nc4ccccc43)[C@@H](C(=O)Nc3nc4ccccc4s3)[C@H]12 | Alpha-bungarotoxin (Bungarus multicinctus) | Met |
| CON(C)C(=O)C=C1C[C@@H](c2cccc(Cl)c2)O[C@@H](c2cccc(Cl)c2)O1 | Alpha-bungarotoxin (Bungarus multicinctus) | Met |
| CC(C)(C)OC(=O)CC[C@]1(C(=O)O)N=C(c2ccc(OCCCO)cc2)O[C@H]1c1ccccc1CN=[N+]=[N-] | Alpha-bungarotoxin (Bungarus multicinctus) | Not met |
| C=CCN1C(=O)[C@@]2(O[C@@H](CCO)[C@H]([Si](C)(C)c3ccc(OC)cc3)[C@H]2C)c2cc(N3C(=O)c4ccccc4Oc4ccccc43)ccc21 | Alpha-bungarotoxin (Bungarus multicinctus) | Not met |
| C=C(COC)/C(=C/C[C@@H](OC(=O)c1ccncc1)c1cccc(OCCO)c1)c1cnc2ccccc2c1 | Alpha-bungarotoxin (Bungarus multicinctus) | Met |
| [N-]=[N+]=Nc1ccccc1C[C@]1(C(=O)NCc2ccccc2)N=C(c2ccc(OCCCO)cc2)O[C@H]1c1ccccc1 | Alpha-bungarotoxin (Bungarus multicinctus) | Met |
| COc1ccccc1CN1C(=O)c2ccccc2[C@@H](C(=O)NC(C)C)[C@@H]1c1ccc(CO)cc1 | Alpha-bungarotoxin (Bungarus multicinctus) | Met |
| COc1ccc(NN2C(C(O)c3ccccn3)C=CC3C(=O)N(C4CCCCC4)C(=O)C32)cc1 (configuration not stated) | Alpha-bungarotoxin (Bungarus multicinctus) | Met |
| CCCC[C@@H]1C[C@H]1[C@@H](NC(=O)c1ccccc1)c1ccc(Cl)cc1 | Alpha-bungarotoxin (Bungarus multicinctus) | Not met |
| CCOC(=O)C[C@H]1[C@H](OC(=O)c2ccc(-c3ccccc3)cc2)[C@@H](NC(=O)c2ccc3ccccc3c2)c2cc(OCCCO)ccc2N1C(=O)c1ccc2ccccc2n1 | Alpha-bungarotoxin (Bungarus multicinctus) | Not met |
| CCOC(=O)C1=CC[C@@H](c2cc(Cl)ccc2Cl)N(S(=O)(=O)c2ccc(C)cc2)[C@H]1c1ccc(OC)cc1 | Alpha-bungarotoxin (Bungarus multicinctus) | Not met |
| O=C1OCC=C[C@H]2OC34C=CCN(c5ccc(Cl)cc5)C(=O)[C@H]3N(CCCCCO)C(=O)[C@@H]4[C@@H]12 (some centres not stated) | Alpha-bungarotoxin (Bungarus multicinctus) | Not met |
